B1: EEHEE_rd4_0763 (parent)
chain: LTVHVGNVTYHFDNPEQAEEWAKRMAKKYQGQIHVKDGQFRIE

- Variants of: B1
- experimental_details: folding stability dG (cDNA display proteolysis); higher = more stable
- experimental_conditions: PBS, room temperature
measured_metric: folding stability dG
Could you give the number and then its unit, please?

Tell me the measured folding stability dG of F12T , please.
-0.063 kcal/mol

Tell me the measured folding stability dG of Y10M , please.
0.903 kcal/mol

Tell me the measured folding stability dG of W21A , please.
0.89 kcal/mol

Tell me the measured folding stability dG of V8C , please.
3.03 kcal/mol

Tell me the measured folding stability dG of G6M , please.
1.51 kcal/mol

Tell me the measured folding stability dG of K23Q , please.
1.55 kcal/mol

Tell me the measured folding stability dG of G38W , please.
0.872 kcal/mol

Tell me the measured folding stability dG of N14L , please.
1.59 kcal/mol

Tell me the measured folding stability dG of R24H , please.
1.44 kcal/mol

Tell me the measured folding stability dG of Q30D , please.
1.52 kcal/mol

Tell me the measured folding stability dG of W21V , please.
0.517 kcal/mol

Tell me the measured folding stability dG of A22N , please.
0.383 kcal/mol

Tell me the measured folding stability dG of V5H , please.
1.26 kcal/mol

Tell me the measured folding stability dG of M25T , please.
0.731 kcal/mol

Tell me the measured folding stability dG of Q39D , please.
1.63 kcal/mol

Tell me the measured folding stability dG of D37N , please.
1.43 kcal/mol

Tell me the measured folding stability dG of G6Q , please.
1.18 kcal/mol

Tell me the measured folding stability dG of V35R , please.
1.08 kcal/mol

Tell me the measured folding stability dG of Q17R , please.
1.57 kcal/mol

Tell me the measured folding stability dG of H4K , please.
1.68 kcal/mol

Tell me the measured folding stability dG of K36L , please.
1.7 kcal/mol

Tell me the measured folding stability dG of G38S , please.
0.873 kcal/mol

Tell me the measured folding stability dG of K23T , please.
1.32 kcal/mol

Tell me the measured folding stability dG of D37C , please.
2.15 kcal/mol

Tell me the measured folding stability dG of I42V , please.
1.58 kcal/mol
